Reference for the values: patent US4161542A

# System: β-receptors
# Test Method Notes: β-blocking activity in reserpinized anesthetized cat (block of isoprenaline effect on heart rate and peripheral resistance; intrinsic activity)
# Type: in vivo
# Details: cumulative doses, vs isoprenaline i.v., peripheral vascular resistance
Measured Quantity: Block of isopren. ED50 PR (peripheral resistance blockade) (mg/kg)

{"columns": ["Compound", "Observed"],
 "data": [
  ["CCCc1ccccc1OCC(O)CNC(C)Cc1ccc(O)cc1 (stereo not drawn)", 0.8],
  ["CCc1ccccc1OCC(O)C(C)NC(C)Cc1ccc(O)cc1 (stereo not drawn)", 0.5],
  ["C=CCc1ccccc1OCC(O)CNC(C)Cc1ccc(O)cc1 (stereo not drawn)", 1.1]
]}
